- target_or_test_system: T1, Peptide C (none)
- T1 construct: only Peptide C; also called WZN-1C; T217
- T1 peptide: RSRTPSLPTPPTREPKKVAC
- assay_remarks: indirect ELISA, peptide coated on the plate, HRP goat anti-rabbit antibody, TMB, read at 650 nm; axes without titles
assay_endpoint: binding result

binder: Antibody 5 (antibody, V domains shown, Rabbit monoclonal antibody; also called 62H10L7) VH: QSVEESGGGLVTPGGTLTLTCTVSGFSLSNYAMSWVRQAPGKGLEWIGFISRSGITYYASWAKGRFTISKTSTTVDLKITSPTTEDTAAYFCAREFGAVGSDYYRDALRLWGPGTLVTVSS VL: DIVMTQTPSSVSAAVGGTVTIKCQASQSIGSNLAWYQQKPGQPPKLLIYGASTLESGVPSRFKGSGSGTEYTLTISDLECADAATYYCQSYYEGSDIGYAFGGGTEVVVEG
reported_result: no binding

binder: Antibody 3 (antibody, V domains shown) VH: QSVEESGGRLVTPGTPLTLTCTVSGFSLSSYAMIWVRQAPGKGLEWIGFISRSGITYYASWAKGRFTISKTSTTVDLKMTSLTTEDTATYFCAREFGAVGSDYYRDAFNLWGPGTLVTVSS VL: DIVMTQTPSSVSAAVGGTVTINCQASQNIYSNLAWYQQKPGQRPRLLIYGASNLASGVPSRFKGSRSGTEFTLTISDLECADAATYYCQGYDYSTAGAYPFGGGTAVVVKG
reported_result: no binding
